Values compiled from patent US5409937A.

Can you tell me IC50 for the items I'm about to list?
- TARGET_DESC: PAF receptor (Homo sapiens)
- Construct: washed human platelet membranes
- Sequence (P25105 whole entry): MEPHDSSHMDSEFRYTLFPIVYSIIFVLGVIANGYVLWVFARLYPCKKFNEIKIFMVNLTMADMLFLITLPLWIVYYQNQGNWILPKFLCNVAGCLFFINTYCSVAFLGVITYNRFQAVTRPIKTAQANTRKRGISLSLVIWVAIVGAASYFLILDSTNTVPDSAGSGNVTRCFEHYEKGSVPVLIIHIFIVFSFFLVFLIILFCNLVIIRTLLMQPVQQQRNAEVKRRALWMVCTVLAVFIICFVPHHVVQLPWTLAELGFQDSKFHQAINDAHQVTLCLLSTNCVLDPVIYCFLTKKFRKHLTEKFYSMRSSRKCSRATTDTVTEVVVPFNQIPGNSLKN
- ASSAY_EXPLANATION: Inhibition of [^3 H]-PAF binding to washed human platelet membranes
- ASSAY_CONDITIONS: 0.5 nM [^3 H]-PAF, 1 hour at 0° C., pH 7.0, 0.25% BSA
Please reply with the bare figure in nM and do not write the unit itself.

Look up IC50: Cc1nc2ccccc2n1C[C@H]1C[C@@H]2C[C@H](c3ccc(F)cc3)O[C@@H]2O1 (relative stereo) [1(e)]
450

Consider next the molecule Cc1nc2ccccc2n1C[C@H]1C[C@@H]2C[C@@H](c3ccc(F)cc3)O[C@@H]2O1 (relative stereo) in the same way.
8000

Consider next the molecule Cc1nc2cnccc2n1C[C@H]1C[C@@H]2C[C@@H](c3ccc(F)cc3)O[C@@H]2O1 (relative stereo) in the same way.
240
